Kindly state Ki for each of the entries shown.
# System tested: adenosine A-2 receptors (Rattus norvegicus)
# Construct: tissue Charles River
# Sequence (P30543 whole entry): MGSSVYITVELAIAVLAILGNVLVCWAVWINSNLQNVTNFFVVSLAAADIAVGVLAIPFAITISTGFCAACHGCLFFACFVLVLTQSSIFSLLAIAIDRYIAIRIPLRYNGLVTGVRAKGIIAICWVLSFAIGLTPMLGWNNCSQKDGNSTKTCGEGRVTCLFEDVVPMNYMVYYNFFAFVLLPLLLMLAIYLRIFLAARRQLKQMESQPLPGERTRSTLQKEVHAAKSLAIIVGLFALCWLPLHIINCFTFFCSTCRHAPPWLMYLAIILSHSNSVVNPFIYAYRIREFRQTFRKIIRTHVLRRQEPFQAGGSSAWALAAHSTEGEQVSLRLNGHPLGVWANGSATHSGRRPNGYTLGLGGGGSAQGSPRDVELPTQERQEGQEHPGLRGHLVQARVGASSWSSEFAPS
# Test protocol: Affinity for brain adenosine A-2 receptors ([3H]NECA competition, striatal membranes)
# Measurement conditions: rat brain striatum membranes, 1 μM CHA in tube addition, 25° C., 60 minutes, read-out: A2 Ki
Give bare numbers, in µM.

Examples with their reported Ki follow.
{"columns": ["Compound", "System tested", "Unit abbreviation", "Ki"],
 "data": [
  ["CCCn1c(=O)c2[nH]c([C@@H]3CCC[C@H]3c3ccccc3)nc2n(CCC)c1=O (relative stereo)", "adenosine A-2 receptors (Rattus norvegicus)", "µM", 2.72],
  ["CCCn1c(=O)c2nc(CC(C)c3ccccc3)[nH]c2n(CCC)c1=O (stereo not drawn)", "adenosine A-2 receptors (Rattus norvegicus)", "µM", 1.74]
]}

Now let's try a different one.
Ki for CCCn1c(=O)c2nc(C3CCc4ccccc4C3)[nH]c2n(CCC)c1=O (stereo not drawn) ?
10.3
